Reported inhibition values for the following compounds.
# Tested on: Yersinia pseudotuberculosis
# EXPERIMENT_DESCRIPTION: Effect on T3S in Yersinia pseudotuberculosis 3 pIB29 assessed as inhibition of light emission at 50 uM by luciferase reporter gene assay

Illustrative cases are given below, each with its answer.
>>> result("O=C(Nc1ccc(Cl)c(Cl)c1)c1ccccc1NS(=O)(=O)c1cccc2nsnc12")
"11%"
>>> result("O=C(Nc1ccc(Cl)c(Cl)c1)c1cc(F)c(F)cc1NS(=O)(=O)c1cc(Cl)cc(Cl)c1O")
"92%"
>>> result("COc1ccc(NC(=O)c2ccc(Cl)cc2NS(=O)(=O)c2cccc(F)c2)cc1")
"32%"
>>> result("O=C(Nc1ccc(Cl)c(Cl)c1)c1cc(Cl)ccc1NS(=O)(=O)c1ccccc1")
"73%"
>>> result("CN(C)c1ccc(NC(=O)c2cc(Cl)ccc2NS(=O)(=O)c2ccccc2)cc1")
"2%"
>>> result("O=C(Nc1ccc(Cl)cc1)c1ccccc1NS(=O)(=O)c1cccc2nsnc12")
"12%"
>>> result("O=C(Nc1ccc(Cl)c(Cl)c1)c1cc(Cl)ccc1NS(=O)(=O)c1cccc2nsnc12")
"69%"
>>> result("O=C(Nc1ccc2cccnc2c1)c1cc(Cl)ccc1NS(=O)(=O)c1ccc(Cl)c(Cl)c1")
"59%"
>>> result("O=C(Nc1ccc(F)c(F)c1)c1ccc(Cl)cc1NS(=O)(=O)c1cccc2nsnc12")
"50%"
>>> result("O=C(Nc1ccc(F)c(F)c1)c1cc(F)c(F)cc1NS(=O)(=O)c1cccc([N+](=O)[O-])c1")
"23%"

// moving on: another record for inhibition
Prompt: Look up and report measured inhibition for this entry: `O=C(Nc1ccc2c(c1)OCO2)c1ccc(Cl)cc1NS(=O)(=O)c1ccccc1`
Response: 10%

###

# Tested on: Yersinia pseudotuberculosis
# EXPERIMENT_DESCRIPTION: Effect on T3S in Yersinia pseudotuberculosis 3 pIB29 assessed as inhibition of light emission at 50 uM by luciferase reporter gene assay
PARAMETER: inhibition

Below, each entry is followed by its recorded inhibition result.
>>> result("O=C(Nc1ccc(Cl)c(Cl)c1)c1cc(F)c(F)cc1NS(=O)(=O)c1cccc2nsnc12")
"66%"
>>> result("O=C(Nc1ccc(F)c(F)c1)c1ccc(Cl)cc1NS(=O)(=O)c1cc(Cl)cc(Cl)c1O")
"86%"

Prompt: Under Yersinia pseudotuberculosis: report inhibition of `O=C(Nc1ccc(F)cc1)c1cc(Cl)ccc1NS(=O)(=O)c1cc(Cl)cc(Cl)c1O` .
Response: 79%

Prompt: Provide inhibition, tested on Yersinia pseudotuberculosis, for `Cc1ccc(S(=O)(=O)Nc2cc(F)c(F)cc2C(=O)Nc2ccc(Cl)c(Cl)c2)cc1` .
Response: 1%
